Molecular target: WNV MTase (West Nile virus)
Construct: containing the N-terminal 300, 266, 265, and 272 amino acids of NS5 protein, respectively; made in house
Sequence (Q9Q6P4 2529-2794 limits assumed): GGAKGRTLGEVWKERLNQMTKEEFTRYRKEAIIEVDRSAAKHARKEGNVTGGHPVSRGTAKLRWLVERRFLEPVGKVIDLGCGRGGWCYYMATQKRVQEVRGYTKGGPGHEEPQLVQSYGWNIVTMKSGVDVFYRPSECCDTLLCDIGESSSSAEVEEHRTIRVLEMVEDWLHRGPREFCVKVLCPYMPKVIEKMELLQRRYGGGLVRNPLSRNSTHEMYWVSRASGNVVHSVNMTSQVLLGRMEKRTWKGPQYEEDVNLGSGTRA
Experiment: biochemical
For each entry below, report its pIC50 value.
# pIC50 is unitless: minus log10 of the molar concentration; print number only

Req: Need pIC50, item O=C1c2ccccc2C(=O)c2c1ccc(N1C(=O)c3ccccc3C1=O)c2-c1c(N2C(=O)c3ccccc3C2=O)ccc2c1C(=O)c1ccccc1C2=O
Resp: 4.78

Req: Please report the recorded pIC50 for O=c1c2ccccc2c2ccccc2c(=O)n1-c1cc2c3ccccc3ccc2c2ccccc12 .
Resp: 4.00
